Test target: 5-hydroxytryptamine receptor 2A (Homo sapiens)
Sequence (P28223 whole entry): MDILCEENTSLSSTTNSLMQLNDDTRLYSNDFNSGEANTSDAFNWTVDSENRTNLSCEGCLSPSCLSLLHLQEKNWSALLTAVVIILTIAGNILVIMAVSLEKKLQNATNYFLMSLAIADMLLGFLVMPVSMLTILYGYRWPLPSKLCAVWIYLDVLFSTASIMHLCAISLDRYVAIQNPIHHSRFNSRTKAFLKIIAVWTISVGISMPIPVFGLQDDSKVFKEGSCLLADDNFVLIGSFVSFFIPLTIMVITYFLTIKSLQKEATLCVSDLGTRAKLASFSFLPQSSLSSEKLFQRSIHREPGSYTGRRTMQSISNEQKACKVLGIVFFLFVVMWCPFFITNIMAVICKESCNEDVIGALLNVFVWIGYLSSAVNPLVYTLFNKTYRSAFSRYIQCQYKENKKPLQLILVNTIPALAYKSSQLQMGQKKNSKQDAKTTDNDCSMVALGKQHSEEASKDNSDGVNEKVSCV
Run description: Displacement of [3H]ketanserin from 5-HT2A receptor expressed in CHO cells at 10 uM after 50 mins by beta liquid scintillation counter
Type: cell-based
A collection of compounds and their measured inhibition

| Compound | inhibition / % |
| --- | --- |
| CCCNC(=O)Oc1cccc2c1-c1cccc3c1[C@@H](C2)N(CCC)CC3 | 16 |
| CCCN1CCc2cccc3c2C1Cc1cccc(OC(=O)CCCCC2CCSS2)c1-3 (racemic) | 14.7 |
| CCCN1CCc2cccc3c2[C@H]1Cc1cccc(OC(=O)NC(C)(C)C)c1-3 | 29.2 |

* * *

A collection of molecules and their measured inhibition
Test target: 5-hydroxytryptamine receptor 2A (Homo sapiens)
Run description: Displacement of [3H]ketanserin from 5-HT2A receptor expressed in CHO cells at 10 uM after 50 mins by beta liquid scintillation counter
Assay type: cell-based

| Molecule | inhibition [%] |
| --- | --- |
| CCCNC(=O)Oc1cccc2c1-c1cccc3c1C(C2)N(CCC)CC3 (racemic) | 30.1 |
| CCCN1CCc2cccc3c2C1Cc1cccc(OC(=O)NCC)c1-3 (racemic) | 19.8 |
| CCCN1CCc2cccc3c2[C@H]1Cc1cccc(OC(=O)CCCCC2CCSS2)c1-3 (stereo not given in full) | 48 |
| CCCCNC(=O)Oc1cccc2c1-c1cccc3c1C(C2)N(CCC)CC3 (racemic) | 37.4 |
| CCCN1CCc2cccc3c2[C@H]1Cc1cccc(N)c1-3 | 49.4 |
